conditions: in n-butyl acetate, 293.14 K
Observable: solubility (mole fraction)

>>> result_value("Clc1ccccc1C(c1ccccc1)(c1ccccc1)n1ccnc1")
0.0104

---

settings: in n-hexanol, 323.17 K
Observable: solubility (mole fraction)

>>> result_value("Clc1ccccc1C(c1ccccc1)(c1ccccc1)n1ccnc1")
0.0769

---

details: in isopropanol, 313.19 K
Observable: solubility (mole fraction)

>>> result_value("Clc1ccccc1C(c1ccccc1)(c1ccccc1)n1ccnc1")
0.0235

---

details: in methyl acetate, 293.1 K
Observable: solubility (mole fraction)

>>> result_value("Clc1ccccc1C(c1ccccc1)(c1ccccc1)n1ccnc1")
0.00953

---

conditions: in n-propanol, 303.16 K
Observable: solubility (mole fraction)

>>> result_value("Clc1ccccc1C(c1ccccc1)(c1ccccc1)n1ccnc1")
0.0327

---

conditions: in n-heptanol, 313.19 K
Observable: solubility (mole fraction)

>>> result_value("Clc1ccccc1C(c1ccccc1)(c1ccccc1)n1ccnc1")
0.0474

---

settings: in n-propanol, 293.14 K
Observable: solubility (mole fraction)

>>> result_value("Clc1ccccc1C(c1ccccc1)(c1ccccc1)n1ccnc1")
0.0213

---

details: in isopentanol, 303.13 K
Observable: solubility (mole fraction)

>>> result_value("Clc1ccccc1C(c1ccccc1)(c1ccccc1)n1ccnc1")
0.0366

---

settings: in isopentanol, 293.14 K
Observable: solubility (mole fraction)

>>> result_value("Clc1ccccc1C(c1ccccc1)(c1ccccc1)n1ccnc1")
0.0239

---

conditions: in n-heptanol, 298.16 K
Observable: solubility (mole fraction)

>>> result_value("Clc1ccccc1C(c1ccccc1)(c1ccccc1)n1ccnc1")
0.0251

---

details: in isopropyl acetate, 313.15 K
Observable: solubility (mole fraction)

>>> result_value("Clc1ccccc1C(c1ccccc1)(c1ccccc1)n1ccnc1")
0.0144

---

conditions: in isopropyl acetate, 298.19 K
Observable: solubility (mole fraction)

>>> result_value("Clc1ccccc1C(c1ccccc1)(c1ccccc1)n1ccnc1")
0.00868

---

conditions: in isopropyl acetate, 323.17 K
Observable: solubility (mole fraction)

>>> result_value("Clc1ccccc1C(c1ccccc1)(c1ccccc1)n1ccnc1")
0.0203

---

conditions: in n-pentanol, 308.15 K
Observable: solubility (mole fraction)

>>> result_value("Clc1ccccc1C(c1ccccc1)(c1ccccc1)n1ccnc1")
0.0486

---

conditions: in isopropanol, 318.16 K
Observable: solubility (mole fraction)

>>> result_value("Clc1ccccc1C(c1ccccc1)(c1ccccc1)n1ccnc1")
0.03

---

settings: in n-butanol, 318.17 K
Observable: solubility (mole fraction)

>>> result_value("Clc1ccccc1C(c1ccccc1)(c1ccccc1)n1ccnc1")
0.0659

---

settings: in n-butanol, 308.18 K
Observable: solubility (mole fraction)

>>> result_value("Clc1ccccc1C(c1ccccc1)(c1ccccc1)n1ccnc1")
0.0439

---

details: in isopropanol, 308.15 K
Observable: solubility (mole fraction)

>>> result_value("Clc1ccccc1C(c1ccccc1)(c1ccccc1)n1ccnc1")
0.0185

---

conditions: in methyl acetate, 318.14 K
Observable: solubility (mole fraction)

>>> result_value("Clc1ccccc1C(c1ccccc1)(c1ccccc1)n1ccnc1")
0.0235

---

conditions: in methyl acetate, 323.18 K
Observable: solubility (mole fraction)

>>> result_value("Clc1ccccc1C(c1ccccc1)(c1ccccc1)n1ccnc1")
0.0281

---

conditions: in n-propanol, 283.15 K
Observable: solubility (mole fraction)

>>> result_value("Clc1ccccc1C(c1ccccc1)(c1ccccc1)n1ccnc1")
0.0144
